assay: in vitro; assay type: in vitro ADME; conditions: human, s9, pH 7.4
Threshold 0.6 min. half-life at 2 μM below it: satisfied. half-life at 2 μM at it or above: not satisfied.

Consider the following illustrative entries.
CC1(C)CC(=O)O[C@H]2[C@@H](OC(=O)C1)[C@](C#N)(c1ccc3c(N)ncnn13)O[C@@H]2COC(=O)OCC1(C#N)CC1 [Compound C41]    not satisfied
CCOC(=O)C(C)(C)OC(=O)OC[C@H]1O[C@@](C#N)(c2ccc3c(N)ncnn23)[C@@H]2OC(=O)CCCC(=O)O[C@@H]21 [Compound C26]    not satisfied
CC1(C)CC(=O)O[C@H]2[C@@H](OC(=O)C1)[C@](C#N)(c1ccc3c(N)ncnn13)O[C@@H]2COC(=O)OC(C)(C)c1ccncc1 [Compound C34]    not satisfied
CC1(C)CC(=O)O[C@H]2[C@@H](OC(=O)C1)[C@](C#N)(c1ccc3c(N)ncnn13)O[C@@H]2COC(=O)OCCN1CCOCC1 [Compound C36]    not satisfied

As a next step, examine the molecule that follows.
Query: Bench note: check whether N#C[C@@]1(c2ccc3c(N)ncnn23)O[C@H](COC(=O)OC2CCOC2)[C@H]2OC(=O)CCCC(=O)O[C@H]21 (stereo partly drawn) [Compound C23] shows half-life at 2 μM below 0.6 min
Response: satisfied
